# TEST_NAME: Half life in ICR mouse at 20 mg/kg, po
# Type: ADME, organism-based
# MEASUREMENT_CONDITIONS: in vivo
VALUE_KIND: half-life (h)

> print(dat)
                           structure.string  value.kind  numeric.readout
1  C[C@@H]1CN(c2cc(F)c3c(c2)N(C)C(=O)C32CCN(c3nc4c(c(=O)[nH]3)CCCN4C)CC2)C[C@H](C)O1   half-life              1.7

----------
# TEST_NAME: Efflux ratio of permeability across basolateral to apical side over apical to basolateral side in MDCK2 cells
# Format: ADME, cell-based, Canis lupus familiaris, MDCK-II
# MEASUREMENT_CONDITIONS: dog, mdck
VALUE_KIND: efflux ratio

> print(dat)
                           structure.string    value.kind  numeric.readout
1  CN1CCN(c2cc(F)c3c(c2)N(C)C(=O)C32CCN(c3nc4c(c(=O)[nH]3)CCCN4C)CC2)CC1  efflux ratio              3.1
2  CN1CCCc2c1nc(N1CCC3(CC1)C(=O)N(CC1COC1)c1cc(F)cc(F)c13)[nH]c2=O  efflux ratio              1.2
3  CN1CCCc2c1nc(N1CCC3(CC1)C(=O)N(C)c1cc(OCCN4CCCCC4)cc(F)c13)[nH]c2=O  efflux ratio              3.2

----------
# Test system: MDR1
# TEST_NAME: Efflux ratio of permeability across basolateral to apical side over apical to basolateral side in MDCK2-MDR1 cells
# Format: ADME, cell-based, Canis lupus familiaris
# MEASUREMENT_CONDITIONS: dog, MDCK-MDR1
Consider the following compounds and their measured efflux ratio readings.
VALUE_KIND: efflux ratio

> print(dat)
                           structure.string    value.kind  numeric.readout
1  C[C@@H]1CN(c2cc(F)c3c(c2)N(C)C(=O)C32CCN(c3nc4c(c(=O)[nH]3)CCCN4C)CC2)C[C@H](C)O1  efflux ratio                1
2  CN1CCCc2c1nc(N1CCC3(CC1)C(=O)N(C)c1cc(OCC(=O)O)cc(F)c13)[nH]c2=O  efflux ratio              0.3
3  COCCOc1cc(F)c2c(c1)N(C)C(=O)C21CCN(c2nc3c(c(=O)[nH]2)CCCN3C)CC1  efflux ratio              7.5
4  CN(C)CCOc1cc(F)c2c(c1)N(C)C(=O)C21CCN(c2nc3c(c(=O)[nH]2)CCCN3C)CC1  efflux ratio             22.7

----------
Consider the following molecules and their measured efflux ratio readings.
# TEST_NAME: Efflux ratio of permeability across basolateral to apical side over apical to basolateral side in MDCK2 cells
# Type: ADME, cell-based, Canis lupus familiaris, MDCK-II
# MEASUREMENT_CONDITIONS: dog, mdck
VALUE_KIND: efflux ratio

> print(dat)
                           structure.string  numeric.readout
1  CN1CCCc2c1nc(N1CCC3(CC1)C(=O)N(C)c1cc(OCCN4CCOCC4)cc(F)c13)[nH]c2=O              5.1
2  CN1CCCc2c1nc(N1CCC3(CC1)C(=O)N(C)c1cc(F)cc(F)c13)[nH]c2=O              1.1
3  CN(C)c1cc(F)c2c(c1)N(C)C(=O)C21CCN(c2nc3c(c(=O)[nH]2)CCCN3C)CC1              1.1
4  C[C@@H]1CN(c2cc(F)c3c(c2)N(C)C(=O)C32CCN(c3nc4c(c(=O)[nH]3)CCCN4C)CC2)C[C@H](C)O1              0.9

----------
Consider the following molecules and their measured IC50 readings.
# ASSAY_TARGET: Tankyrase 1/2 (Homo sapiens, UniProt Q9H2K2+O95271)
# MEASUREMENT_CONDITIONS: hek293
# Description: Inhibition of TNKS/TNKS2 (unknown origin) expressed in HEK293 cells assessed as reduction in Wnt-signaling measured after 24 hrs by TCF-luciferase reporter gene assay
VALUE_KIND: IC50

> print(dat)
                            structure.string                              assay.target  value.kind   result
 1  Cc1cccc2c(=O)[nH]c(N3CCC4(CC3)C(=O)N(CCO)c3cc(F)cc(F)c34)nc12  Tankyrase 1/2 (Homo sapiens, UniProt Q9H2K2+O95271)        IC50   0.2 nM
 2  Cc1cccc2c(=O)[nH]c(N3CCC4(CC3)CN(CCO)c3cc(F)cc(F)c34)nc12  Tankyrase 1/2 (Homo sapiens, UniProt Q9H2K2+O95271)        IC50   3.1 nM
 3  CN1CCCc2c1nc(N1CCC3(CC1)C(=O)N(C)c1cc(N4CCOCC4)cc(F)c13)[nH]c2=O  Tankyrase 1/2 (Homo sapiens, UniProt Q9H2K2+O95271)        IC50   0.1 nM
 4  O=c1[nH]c(N2CCC3(CC2)CN(CCO)c2cc(F)cc(F)c23)nc2c1CCCC2  Tankyrase 1/2 (Homo sapiens, UniProt Q9H2K2+O95271)        IC50  12.1 nM
 5  CN1CCCc2c1nc(N1CCC3(CC1)C(=O)N(C)c1cc(OCCN4CCCCC4)cc(F)c13)[nH]c2=O  Tankyrase 1/2 (Homo sapiens, UniProt Q9H2K2+O95271)        IC50   2.5 nM
 6  CN1CCc2c1nc(N1CCC3(CC1)CN(CCO)c1cc(F)cc(F)c13)[nH]c2=O  Tankyrase 1/2 (Homo sapiens, UniProt Q9H2K2+O95271)        IC50  36.5 nM
 7  CN(C)CCOc1cc(F)c2c(c1)N(C)C(=O)C21CCN(c2nc3c(c(=O)[nH]2)CCCN3C)CC1  Tankyrase 1/2 (Homo sapiens, UniProt Q9H2K2+O95271)        IC50   0.3 nM
 8  CN1CCCc2c1nc(N1CCC3(CC1)C(=O)N(C)c1cc(N4CCCCC4)cc(F)c13)[nH]c2=O  Tankyrase 1/2 (Homo sapiens, UniProt Q9H2K2+O95271)        IC50   0.7 nM
 9  CN1CCCc2c1nc(N1CCC3(CC1)C(=O)N(C)c1cc(F)cc(F)c13)[nH]c2=O  Tankyrase 1/2 (Homo sapiens, UniProt Q9H2K2+O95271)        IC50   3.9 nM
10  CN1CCCc2c1nc(N1CCC3(CC1)C(=O)N(CS(C)(=O)=O)c1cc(F)cc(F)c13)[nH]c2=O  Tankyrase 1/2 (Homo sapiens, UniProt Q9H2K2+O95271)        IC50   0.1 nM
11  COc1cc(F)c2c(c1)N(C)C(=O)C21CCN(c2nc3c(c(=O)[nH]2)CCCN3C)CC1  Tankyrase 1/2 (Homo sapiens, UniProt Q9H2K2+O95271)        IC50   0.2 nM

----------
# ASSAY_TARGET: Poly [ADP-ribose] polymerase tankyrase-2 (Homo sapiens, UniProt Q9H2K2)
# Sequence (Q9H2K2 whole entry, the tested form may be a part): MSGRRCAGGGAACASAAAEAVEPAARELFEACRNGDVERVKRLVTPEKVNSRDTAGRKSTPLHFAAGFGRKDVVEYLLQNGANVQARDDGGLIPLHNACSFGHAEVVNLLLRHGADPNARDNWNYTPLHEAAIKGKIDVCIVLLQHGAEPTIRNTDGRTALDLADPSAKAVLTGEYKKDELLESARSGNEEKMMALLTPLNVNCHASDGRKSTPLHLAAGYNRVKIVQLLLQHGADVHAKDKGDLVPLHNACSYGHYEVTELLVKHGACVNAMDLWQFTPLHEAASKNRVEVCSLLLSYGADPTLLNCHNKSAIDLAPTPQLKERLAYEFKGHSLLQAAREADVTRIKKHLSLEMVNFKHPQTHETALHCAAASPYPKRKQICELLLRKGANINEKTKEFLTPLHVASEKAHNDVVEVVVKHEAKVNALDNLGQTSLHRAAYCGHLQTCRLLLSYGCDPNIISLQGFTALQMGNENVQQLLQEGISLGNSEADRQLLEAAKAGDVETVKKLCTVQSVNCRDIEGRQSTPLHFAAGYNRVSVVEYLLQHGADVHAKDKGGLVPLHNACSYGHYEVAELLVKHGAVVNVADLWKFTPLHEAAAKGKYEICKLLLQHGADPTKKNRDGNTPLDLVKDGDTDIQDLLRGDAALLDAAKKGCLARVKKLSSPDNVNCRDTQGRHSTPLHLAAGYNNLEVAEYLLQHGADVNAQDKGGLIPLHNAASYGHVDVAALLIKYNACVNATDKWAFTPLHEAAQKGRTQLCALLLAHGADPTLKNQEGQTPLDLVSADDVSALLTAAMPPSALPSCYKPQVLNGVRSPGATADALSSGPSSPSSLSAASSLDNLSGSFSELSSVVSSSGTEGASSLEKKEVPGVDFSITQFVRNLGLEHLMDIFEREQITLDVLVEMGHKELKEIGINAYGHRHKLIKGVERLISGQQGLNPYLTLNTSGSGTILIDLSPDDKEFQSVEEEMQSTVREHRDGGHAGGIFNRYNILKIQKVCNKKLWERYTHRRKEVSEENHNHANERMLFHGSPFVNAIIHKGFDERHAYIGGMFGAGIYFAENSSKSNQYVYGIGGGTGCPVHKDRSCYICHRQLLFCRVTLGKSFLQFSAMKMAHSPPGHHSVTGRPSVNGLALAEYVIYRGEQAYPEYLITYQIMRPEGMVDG
# TEST_NAME: Inhibition of recombinant human N-terminal TEV cleavage site-fused/FLAG-poly his-tagged TNKS2 ARC5-SAM-PARP domain (613 to 1166 residues) expressed in Escherichia coli assessed as reduction in auto-PARylation preincubated for 10 mins followed by biotinylated-NAD+ addition and measured after 45 mins by ELISA
VALUE_KIND: IC50

> print(dat)
                                   molecule                              assay.target  value.kind   result
1  CN1CCCc2c1nc(N1CCC3(CC1)C(=O)N(C)c1cc(N4CCOCC4)cc(F)c13)[nH]c2=O  Poly [ADP-ribose] polymerase tankyrase-2 (Homo sapiens, UniProt Q9H2K2)        IC50  10.5 nM
2  CN1CCCc2c1nc(N1CCC3(CC1)C(=O)N(CC(O)CO)c1cc(F)cc(F)c13)[nH]c2=O (stereo not given)  Poly [ADP-ribose] polymerase tankyrase-2 (Homo sapiens, UniProt Q9H2K2)        IC50  12.5 nM
3  CN1CCCc2c1nc(N1CCC3(CC1)C(=O)N(C)c1cc(OCC(=O)O)cc(F)c13)[nH]c2=O  Poly [ADP-ribose] polymerase tankyrase-2 (Homo sapiens, UniProt Q9H2K2)        IC50   9.9 nM
4  CN1CCCc2c1nc(N1CCC3(CC1)C(=O)N(CCO)c1cc(F)cc(F)c13)[nH]c2=O  Poly [ADP-ribose] polymerase tankyrase-2 (Homo sapiens, UniProt Q9H2K2)        IC50  13.5 nM
5  CN(C)CCOc1cc(F)c2c(c1)N(C)C(=O)C21CCN(c2nc3c(c(=O)[nH]2)CCCN3C)CC1  Poly [ADP-ribose] polymerase tankyrase-2 (Homo sapiens, UniProt Q9H2K2)        IC50  11.1 nM
